PROTOCOL SUMMARY: Cytotoxicity of germacrone on DH82 macrophages (MTT)
Format: cell-based, canine
RUN PARAMETERS: dog, DH82 macrophages; 48 h treatment; MTT; R^2 98.4
Method: Canine DH82 (ATCC®-CRL-10389TM) macrophages were maintained in Dulbecco’s modified Eagle’s medium (DMEM) (Thermo Fisher Scientific, Waltham, MA, USA) supplemented with 10% heat-inactivated FBS (Thermo Fisher Scientific, Waltham, MA, USA), and Pen-Strep at 37 °C in 5% CO2. DH82 canine macrophages (5 × 10^4 per well) were seeded in 96-well plates in DMEM and kept overnight at 37 °C and 5% CO2. After washing with PBS, germacrone was added in varying concentrations (10, 50 and 100 μg/mL). […]
REPORTED METRIC: CC50 at 48 h (µg/mL)
Write it as a number; the unit µg/mL goes unstated.

Exercise: Could you share which CC50 at 48 h value was measured for CC(C)=C1C/C=C(\C)CC/C=C(\C)CC1=O ?
Key: 12.9
